- Assay info: self-splicing fitness, log relative to wild type (ln ratio); higher = more splicing; Tetrahymena group I intron in knt gene, E. coli kanamycin selection, DiMSum; sequences stand for … in CUCUCU…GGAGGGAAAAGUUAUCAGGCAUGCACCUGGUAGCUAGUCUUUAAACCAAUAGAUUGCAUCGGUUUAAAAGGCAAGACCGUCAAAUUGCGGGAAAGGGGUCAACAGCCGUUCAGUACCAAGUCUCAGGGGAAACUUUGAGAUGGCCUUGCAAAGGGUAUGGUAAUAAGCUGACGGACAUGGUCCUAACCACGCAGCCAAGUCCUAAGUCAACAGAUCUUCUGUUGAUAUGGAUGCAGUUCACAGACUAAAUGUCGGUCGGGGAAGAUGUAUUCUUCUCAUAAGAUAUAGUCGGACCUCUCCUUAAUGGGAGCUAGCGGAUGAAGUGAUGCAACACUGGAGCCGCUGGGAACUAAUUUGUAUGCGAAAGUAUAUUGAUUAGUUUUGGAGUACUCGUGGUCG;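 also: selection with 25 µg/mL kanamycin versus none on LB agar overnight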
- Test parameters: 37 °C
Quantity kind: self-splicing fitness (ln)
One number for each entry.

ACCCAGCAAUAUUACGGCCC -0.539

# map each sequence to its self-splicing fitness (ln)
1. CAGCAGCAAUAUUACGAAGA
2. GGGAAGCAAUAUUACGGAAU
3. UUCGAGCAAUAUUACGCAUG
4. AUUUAGCAAUAUUACGACGA
5. AGCUAGCAAUAUUACGACUU
6. AUGUAGCAAUAUUACGUUCA

Ans.
1: -2.6; 2: -1.67; 3: -2.21; 4: 0.131; 5: -0.0618; 6: -0.276

Each sequence below has a reported value. Please supply its self-splicing fitness (ln).
1. UCCUAGCAAUAUUACGCGCG
2. CCAAAGCAAUAUUACGGAAU
3. AAUUAGCAAUAUUACGAUAG
4. GUAGAGCAAUAUUACGACAU
5. UCCGAGCAAUAUUACGUAAG
6. CACGAGCAAUAUUACGUCUC
7. GAUCAGCAAUAUUACGCCAA
8. UGCUAGCAAUAUUACGAUAC

Ans.
-2.45
-2.95
-1.75
0.459
-2.13
-3.63
-0.747
-1.93

Qu. Given the sequence GGUAAGCAAUAUUACGAGCC , what is its reported self-splicing fitness (ln)?
Ans. -2.76

* * *

Give self-splicing fitness (ln) for every item shown.
- Assay info: self-splicing fitness, log relative to wild type (ln ratio); higher = more splicing; Tetrahymena group I intron in knt gene, E. coli kanamycin selection, DiMSum; sequences stand for … in CUCUCU…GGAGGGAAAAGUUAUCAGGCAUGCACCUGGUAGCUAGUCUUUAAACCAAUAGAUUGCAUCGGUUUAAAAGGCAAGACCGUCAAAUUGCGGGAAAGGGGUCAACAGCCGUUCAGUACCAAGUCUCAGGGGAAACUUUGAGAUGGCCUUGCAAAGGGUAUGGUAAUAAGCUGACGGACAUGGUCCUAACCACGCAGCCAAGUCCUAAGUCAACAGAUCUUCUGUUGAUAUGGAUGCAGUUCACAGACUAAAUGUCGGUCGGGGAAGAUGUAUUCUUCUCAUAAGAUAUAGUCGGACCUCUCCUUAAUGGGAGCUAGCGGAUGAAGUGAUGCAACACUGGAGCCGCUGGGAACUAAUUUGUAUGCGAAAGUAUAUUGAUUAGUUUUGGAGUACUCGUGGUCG
- Test parameters: 30 °C
Answers are plain numbers.

AGGGAGCAAUAUUACGUCAA -3.37
AAUAAGCAAUAUUACGCGGG -2.62
CACGAGCAAUAUUACGUGUA -3.1

Provide each entry's self-splicing fitness (ln) from the list below.
1. ACAGAGCAAUAUUACGACGU
2. ACCCAGCAAUAUUACGGCCC
3. CGUGAGCAAUAUUACGGAAG

Ans.
1: -1.31; 2: -0.0475; 3: -1.17

State recorded self-splicing fitness (ln) for all listed sequences.
1. CCGGAGCAAUAUUACGAUUG
2. GUGUAGCAAUAUUACGAAUA

Ans.
1. -0.529
2. -1.91

Record self-splicing fitness (ln) for all entries; do not skip any.
1. AUUUAGCAAUAUUACGUCAG
2. UACUAGCAAUAUUACGGGAU
3. UGUAAGCAAUAUUACGCUGA

Ans.
1. -3.7
2. -3.17
3. -3.08

Count: 8. Required value per item: self-splicing fitness (ln).
1. UUCCAGCAAUAUUACGUGGA
2. CGCGAGCAAUAUUACGUACU
3. UUGAAGCAAUAUUACGACAA
4. AUUAAGCAAUAUUACGCGAA
5. UACUAGCAAUAUUACGGCGG
6. UCCUAGCAAUAUUACGCGUA
7. ACUAAGCAAUAUUACGGAGG
8. GUCAAGCAAUAUUACGAAUA

Ans.
1: -3.28; 2: -3.32; 3: 0.222; 4: -1.32; 5: -0.694; 6: -2.95; 7: -2.52; 8: -1.85
